tested on: Aβ40 in conditioned medium of cells stably expressing Amyloid Precursor Protein (APP); experiment: In vitro BACE cell-based assay (Aβ40 in conditioned medium, sandwich ELISA); details: Homo sapiens, HEK293, Table 2; HEK cells; read-out: HEK cell assay;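 further: compounds added as a dilution series, secreted peptide quantified by europium time-resolved fluorescence readout, potency fitted from percent of control versus compound concentration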
Reported values of pIC50 for individual entries
pIC50 field: float, defined as -log10 of concentration (mol/L).

Worked cases, pIC50 given:
COCC(=O)N[C@@H](Cc1ccc(F)cc1)[C@H](O)CN[C@H]1CC2(CCC2)Oc2c1cc(CC(C)(C)C)nc2-n1ccnc1 [compound 448] ... 6.82
COCC(=O)N[C@@H](Cc1ccnc(OC)c1)[C@H](O)CN[C@H]1CC2(CCC2)Oc2ncc(CC(C)(C)C)cc21 [compound 474] ... 7.66

pIC50 in this record for CC(C)(C)Cc1cnc2c(c1)[C@@H](NC[C@@H](O)[C@H](Cc1ccc3c(c1)OCO3)NC(=O)[C@@H]1CCCO1)CC1(CCC1)O2 [compound 453] : 7.43

Per the record, COCC(=O)N[C@@H](Cc1cc(F)cc(F)c1)[C@H](O)CN[C@H]1CC2(CCC2)Oc2c(Br)cc(CC(C)(C)C)cc21 [compound 464] has pIC50 of 7.04

Consider CC(F)C(=O)N[C@@H](Cc1ccc2c(c1)OCO2)[C@H](O)CN[C@H]1CC2(CCC2)Oc2ncc(CC(C)(C)C)cc21 (stereo partly drawn) [compound 452] . Its measured pIC50 is 7.41

Form: compound = CO[C@H](C)C(=O)N[C@@H](Cc1cc(F)cc(F)c1)[C@H](O)CN[C@H]1CC2(CCC2)Oc2c(-c3nccs3)cc(CC(C)C)cc21 [compound 459] ; pIC50 = 7.34

So for COCC(=O)N[C@@H](Cc1cc(F)cc(F)c1)[C@H](O)CN[C@H]1CC2(CCC2)Oc2c(-c3nccs3)cc(CC(C)(C)C)cc21 [compound 463] , the logged pIC50 turned out to be 7.32

// recorded pIC50 for CC(=O)C(C)(C)C(=O)N[C@@H](Cc1cccc(F)c1)[C@H](O)CN[C@H]1CC2(CCC2)Oc2ncc(CC(C)(C)C)cc21 [compound 467] : 6.68

Looking up COCC(=O)N[C@@H](Cc1cccc(C#N)c1)[C@H](O)CN[C@H]1CC2(CC(F)(F)C2)Oc2ncc(CC(C)(C)C)cc21 [compound 470] , I see its pIC50 listed as 7.85

The compound identified as COCC(=O)N[C@@H](Cc1ccc(F)cc1)[C@H](O)CN[C@H]1CC2(CCC2)Oc2c1cc(CC(C)(C)C)nc2-c1nccs1 [compound 451] registered its pIC50 at 6.57

CC(C)(C)Cc1cnc2c(c1)[C@@H](NC[C@@H](O)[C@H](Cc1cccc(C#N)c1)NC(=O)[C@H]1CCCO1)CC1(CC(F)(F)C1)O2 [compound 472] has a reported pIC50 of 7.82
